# experimentalSystem: P2Y purinoceptor 6 (Rattus norvegicus, UniProt Q63371)
# Sequence (Q63371 whole entry): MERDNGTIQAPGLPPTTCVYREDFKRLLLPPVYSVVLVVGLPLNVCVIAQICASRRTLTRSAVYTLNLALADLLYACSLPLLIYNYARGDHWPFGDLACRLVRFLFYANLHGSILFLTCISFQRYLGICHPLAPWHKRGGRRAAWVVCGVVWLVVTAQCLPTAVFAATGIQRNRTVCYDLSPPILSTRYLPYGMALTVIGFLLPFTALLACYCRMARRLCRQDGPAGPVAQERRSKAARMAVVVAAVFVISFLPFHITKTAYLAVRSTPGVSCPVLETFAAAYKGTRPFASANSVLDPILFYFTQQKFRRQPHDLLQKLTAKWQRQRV
# assay: Agonist activity at rat P2Y purinoceptor 6 expressed in human 1321N1 cells assessed as increase in intracellular calcium concentration by spectrofluorimetry
# Type: functional, cell-based
# assaySetup: read-out: EC50
endpoint: log10 of EC50 (log10 of the value in nM)

• BP(=O)(OC[C@H]1O[C@@H](n2ccc(=O)[nH]c2=O)[C@H](O)[C@@H]1O)OP(=O)(O)OP(=O)(O)OC[C@H]1O[C@@H](n2ccc(=O)[nH]c2=O)[C@H](O)[C@@H]1O.CCCCN(CCCC)CCCC.CCCCN(CCCC)CCCC.CCCCN(CCCC)CCCC (stereo in doubt; 11A) = 2.86
• BP(=O)(OP(=O)(O)OC[C@H]1O[C@@H](n2cnc3c(N)ncnc32)[C@H](O)[C@@H]1O)OP(=O)(O)OP(=O)(O)OC[C@H]1O[C@@H](n2ccc(=O)[nH]c2=O)[C@H](O)[C@@H]1O.CCCCN(CCCC)CCCC.CCCCN(CCCC)CCCC.CCCCN(CCCC)CCCC.CCCCN(CCCC)CCCC (stereo in doubt; 8B) = 3.28
• BP(=O)(OP(=O)(O)OC[C@H]1O[C@@H](n2cnc3c(N)ncnc32)[C@H](O)[C@@H]1O)OP(=O)(O)OP(=O)(O)OC[C@H]1O[C@@H](n2ccc(=O)[nH]c2=O)[C@H](O)[C@@H]1O.CCCCN(CCCC)CCCC.CCCCN(CCCC)CCCC.CCCCN(CCCC)CCCC.CCCCN(CCCC)CCCC (stereo in doubt; 8A) = 3.11
• BP(=O)(OC[C@H]1O[C@@H](n2ccc(=O)[nH]c2=O)[C@H](O)[C@@H]1O)OP(=O)(O)OP(=O)(O)OP(=O)(O)OC[C@H]1O[C@@H](n2ccc(=O)[nH]c2=O)[C@H](O)[C@@H]1O.CCCCN(CCCC)CCCC.CCCCN(CCCC)CCCC.CCCCN(CCCC)CCCC.CCCCN(CCCC)CCCC (stereo in doubt; 13A) = 4.56
• BP(=O)(OP(=O)(O)OC[C@H]1O[C@@H](n2ccc(=O)[nH]c2=O)[C@H](O)[C@@H]1O)OP(=O)(O)OP(=O)(O)OC[C@H]1O[C@@H](n2ccc(=O)[nH]c2=O)[C@H](O)[C@@H]1O.CCCCN(CCCC)CCCC.CCCCN(CCCC)CCCC.CCCCN(CCCC)CCCC.CCCCN(CCCC)CCCC (stereo in doubt; 7B) = 2.99
• BP(=O)(OC[C@H]1O[C@@H](n2ccc(=O)[nH]c2=O)[C@H](O)[C@@H]1O)OP(=O)(O)OP(=O)(O)OC[C@H]1O[C@@H](n2ccc(=O)[nH]c2=O)[C@H](O)[C@@H]1O.CCCCN(CCCC)CCCC.CCCCN(CCCC)CCCC.CCCCN(CCCC)CCCC (stereo in doubt; 11B) = 2.48
• BP(=O)(OP(=O)(O)OC[C@H]1O[C@@H](n2ccc(=O)[nH]c2=O)[C@H](O)[C@@H]1O)OP(=O)(O)OP(=O)(O)OC[C@H]1O[C@@H](n2cnc3c(N)ncnc32)[C@H](O)[C@@H]1O.CCCCN(CCCC)CCCC.CCCCN(CCCC)CCCC.CCCCN(CCCC)CCCC.CCCCN(CCCC)CCCC (stereo in doubt; 9B) = 4.07

###

# assay: Stability of the compound assessed as human e-NPP1-mediated hydrolysis at pH 8.5 after 20 mins by HPLC analysis
# Type: ADME
# assaySetup: buffer, pH 8.5, 20 min; 20 min
The following molecules are shown together with reported Drug degradation values.
endpoint: Drug degradation (%)

- BP(=O)(OC[C@H]1O[C@@H](n2cnc3c(N)ncnc32)[C@H](O)[C@@H]1O)OP(=O)(O)OP(=O)(O)OP(=O)(O)OC[C@H]1O[C@@H](n2cnc3c(N)ncnc32)[C@H](O)[C@@H]1O.CCCCN(CCCC)CCCC.CCCCN(CCCC)CCCC.CCCCN(CCCC)CCCC.CCCCN(CCCC)CCCC (stereo in doubt; 12A): 2.5
- BP(=O)(OP(=O)(O)OC[C@H]1O[C@@H](n2ccc(=O)[nH]c2=O)[C@H](O)[C@@H]1O)OP(=O)(O)OP(=O)(O)OC[C@H]1O[C@@H](n2cnc3c(N)ncnc32)[C@H](O)[C@@H]1O.CCCCN(CCCC)CCCC.CCCCN(CCCC)CCCC.CCCCN(CCCC)CCCC.CCCCN(CCCC)CCCC (stereo in doubt; 9B): 3.3
- BP(=O)(OC[C@H]1O[C@@H](n2ccc(=O)[nH]c2=O)[C@H](O)[C@@H]1O)OP(=O)(O)OP(=O)(O)OP(=O)(O)OC[C@H]1O[C@@H](n2ccc(=O)[nH]c2=O)[C@H](O)[C@@H]1O.CCCCN(CCCC)CCCC.CCCCN(CCCC)CCCC.CCCCN(CCCC)CCCC.CCCCN(CCCC)CCCC (stereo in doubt; 13B): 11.3
- BP(=O)(OP(=O)(O)OC[C@H]1O[C@@H](n2cnc3c(N)ncnc32)[C@H](O)[C@@H]1O)OP(=O)(O)OP(=O)(O)OC[C@H]1O[C@@H](n2cnc3c(N)ncnc32)[C@H](O)[C@@H]1O.CCCCN(CCCC)CCCC.CCCCN(CCCC)CCCC.CCCCN(CCCC)CCCC.CCCCN(CCCC)CCCC (stereo in doubt; 6B): 2.1
- BP(=O)(OC[C@H]1O[C@@H](n2cnc3c(N)ncnc32)[C@H](O)[C@@H]1O)OP(=O)(O)OP(=O)(O)OC[C@H]1O[C@@H](n2cnc3c(N)ncnc32)[C@H](O)[C@@H]1O.CCCCN(CCCC)CCCC.CCCCN(CCCC)CCCC.CCCCN(CCCC)CCCC (stereo in doubt; 10B): 4.4
- BP(=O)(OP(=O)(O)OC[C@H]1O[C@@H](n2cnc3c(N)ncnc32)[C@H](O)[C@@H]1O)OP(=O)(O)OP(=O)(O)OC[C@H]1O[C@@H](n2ccc(=O)[nH]c2=O)[C@H](O)[C@@H]1O.CCCCN(CCCC)CCCC.CCCCN(CCCC)CCCC.CCCCN(CCCC)CCCC.CCCCN(CCCC)CCCC (stereo in doubt; 8B): 2.1
- BP(=O)(OC[C@H]1O[C@@H](n2ccc(=O)[nH]c2=O)[C@H](O)[C@@H]1O)OP(=O)(O)OP(=O)(O)OC[C@H]1O[C@@H](n2ccc(=O)[nH]c2=O)[C@H](O)[C@@H]1O.CCCCN(CCCC)CCCC.CCCCN(CCCC)CCCC.CCCCN(CCCC)CCCC (stereo in doubt; 11A): 0

Entry source: ChEMBL document CHEMBL1949525
